Test system: Bacillus subtilis
protocol_description: Antibacterial activity against Bacillus subtilis (Ehrenberg) Cohn ATCC 6051 after overnight incubation by broth microdilution method
Assay type: functional
# MIC values compiled below
Answer in µg/mL, number only, no unit symbol.

The following molecules have reported results that may help.
Lookup: Which MIC is reported for this molecule? CN[C@@H]1[C@H](O[C@H]2[C@H](O[C@H]3[C@H](O)[C@@H](O)[C@H](N=C(N)N)[C@@H](O)[C@@H]3N=C(N)N)O[C@@H](C)[C@]2(O)C=O)O[C@@H](CO)[C@H](O)[C@H]1O [STREPTOMYCIN]
Found: 31.2

Lookup: What about this molecule? CC1(C)S[C@@H]2[C@H](NC(=O)Cc3ccccc3)C(=O)N2[C@H]1C(=O)O [PENICILLIN G]
Found: 15.6

Lookup: What about this molecule? "C=C1CC[C@H]2C(C)(C)CCC[C@]2(C)[C@H]1/C=C/C1=C(C2=C(/C=C/[C@H]3C(=C)CC[C@H]4C(C)(C)CCC[C@]34C)COC2=O)C(=O)OC1"
Found: 31.2

Others:
Lookup: Which MIC is reported for this molecule? O=C(N[C@H](CO)[C@H](O)c1ccc([N+](=O)[O-])cc1)C(Cl)Cl [CHLORAMPHENICOL]
Found: 15.6
